run_description: in vivo
run_conditions: female, ICR CD-1, mouse, plasma, sc, 50 mg/kg, Plasma concentration MKM, s.c. 50 mg/kg, Time 2 (h), Mouse 2
Where a SMILES comes first, the peptide text is derived from it. Bridges are numbered along the chain shown (N, C = ends). [ ]: non-standard residue; d: D form. dOrn = NCCC[C@@H](N)C(=O)O
property_name: level at 2 h
Note: state the figure and append the unit.

(Q) Annotate the molecule C[C@@H](O)[C@@H]1NC(=O)[C@@H](CCCNC(=N)N)NC(=O)[C@@H](CCCNC(=N)N)NC(=O)[C@@H](CC(N)=O)NC(=O)[C@@H](NC(=O)[C@@H](Cc2ccccc2)NC(=O)[C@@H](CCCN)NC(=O)[C@H](N)CCCNC(=N)N)[C@@H](C)OC(=O)[C@H](Cc2c[nH]cn2)NC1=O [MKM-A, manikomycin] (H-[dR][dOrn][dF]T[dN][dR][dR]TH; ester 4-C) with its measured level at 2 h.
(A) 1060 ng/mL

Cited source for all entries: paper PMC13372681
